method_notes: Pharmacokinetic assay in adult beagles (IV 5 mg/kg, PO 10 mg/kg)
Format: in vivo
measurement_context: beagle, dog, plasma, PO 10 mg/kg, male
test_readout: Cmax

Req: Fill in the blank: the reported Cmax of N#CC[C@H](C1CCCC1)n1cc(-c2ncnc3[nH]ccc23)c(N)n1 is ____.
Resp: 3830 ng/mL

* * *

Test system: HEL (JAK2^V617F) cells
method_notes: Cell proliferation assay (CellTiter-Blue, 72 hrs)
Type: cell-based
measurement_context: Homo sapiens; 72 hrs of treatment
test_readout: IC50

Req: Fill in the blank: the reported IC50 of CCNc1nn(C(CC#N)C2CCCC2)cc1-c1ncnc2[nH]ccc12 (stereo not shown) is ____.
Resp: < 200 nM

* * *

method_notes: in vivo
measurement_context: male, Sprague-Dawley, rat, plasma, po, 5 mg/kg
test_readout: half-life (min)
All answers are understood in min, so give the number only.

Req: Fill in the blank: the reported half-life of CCNc1nn(C(CC#N)C2CCCC2)cc1-c1ncnc2[nH]ccc12 (stereo not shown) is ____.
Resp: 30

* * *

method_notes: Pharmacokinetic assay in adult beagles (IV 5 mg/kg, PO 10 mg/kg)
Type: in vivo
measurement_context: beagle, dog, plasma, PO 10 mg/kg, female
test_readout: Tmax

Req: Fill in the blank: the reported Tmax of N#CC[C@H](C1CCCC1)n1cc(-c2ncnc3[nH]ccc23)c(N)n1 is ____.
Resp: 1.13 h

* * *

method_notes: Pharmacokinetic assay in adult beagles (IV 5 mg/kg, PO 10 mg/kg)
Type: in vivo
measurement_context: beagle, dog, plasma, PO 10 mg/kg, male, read-out: AUCINF—obs
test_readout: AUC(0-inf) (ng·h/mL)
All answers are understood in ng·h/mL, so give the number only.

Req: Fill in the blank: the reported AUC(0-inf) of N#CC[C@H](C1CCCC1)n1cc(-c2ncnc3[nH]ccc23)c(N)n1 is ____.
Resp: 17500

* * *

method_notes: Pharmacokinetic assay in adult beagles (IV 5 mg/kg, PO 10 mg/kg)
Type: in vivo
measurement_context: beagle, dog, plasma, PO 10 mg/kg, female
test_readout: Cmax (µg/mL)
All answers are understood in µg/mL, so give the number only.

Req: Fill in the blank: the reported Cmax of N#CC[C@H](C1CCCC1)n1cc(-c2ncnc3[nH]ccc23)c(N)n1 is ____.
Resp: 3.98

* * *

method_notes: Pharmacokinetic assay in adult female SD rats (30 mg/kg oral)
Format: in vivo
measurement_context: female, Sprague-Dawley, rat, plasma, po, 30 mg/kg, read-out: Tmax
Structures can show the parent of a compound that is named as a salt.
test_readout: Tmax (min)
All answers are understood in min, so give the number only.

Req: Fill in the blank: the reported Tmax of N#CC[C@H](C1CCCC1)n1cc(-c2ncnc3[nH]ccc23)c(N)n1 [hydrochloride] is ____.
Resp: 19.8

* * *

method_notes: in vivo
measurement_context: male, Sprague-Dawley, rat, plasma, po, 5 mg/kg
test_readout: AUC(0-inf) (ng·h/mL)
All answers are understood in ng·h/mL, so give the number only.

Req: Fill in the blank: the reported AUC(0-inf) of CCNc1nn(C(CC#N)C2CCCC2)cc1-c1ncnc2[nH]ccc12 (stereo not shown) [Example 7] is ____.
Resp: 20

* * *

method_notes: in vivo
measurement_context: male, Sprague-Dawley, rat, plasma, po, 5 mg/kg
test_readout: Tmax (min)
All answers are understood in min, so give the number only.

Req: Fill in the blank: the reported Tmax of CCNc1nn(C(CC#N)C2CCCC2)cc1-c1ncnc2[nH]ccc12 (stereo not shown) [Example 7] is ____.
Resp: 19.8
